These entries and their values trace back to paper PMC10786891.

Target: T1, EsCas13d, nuclease-dead (Eubacterium siraeum, UniProt B0MS50, R295A;H300A;R849A;H854A)
T1 sequence: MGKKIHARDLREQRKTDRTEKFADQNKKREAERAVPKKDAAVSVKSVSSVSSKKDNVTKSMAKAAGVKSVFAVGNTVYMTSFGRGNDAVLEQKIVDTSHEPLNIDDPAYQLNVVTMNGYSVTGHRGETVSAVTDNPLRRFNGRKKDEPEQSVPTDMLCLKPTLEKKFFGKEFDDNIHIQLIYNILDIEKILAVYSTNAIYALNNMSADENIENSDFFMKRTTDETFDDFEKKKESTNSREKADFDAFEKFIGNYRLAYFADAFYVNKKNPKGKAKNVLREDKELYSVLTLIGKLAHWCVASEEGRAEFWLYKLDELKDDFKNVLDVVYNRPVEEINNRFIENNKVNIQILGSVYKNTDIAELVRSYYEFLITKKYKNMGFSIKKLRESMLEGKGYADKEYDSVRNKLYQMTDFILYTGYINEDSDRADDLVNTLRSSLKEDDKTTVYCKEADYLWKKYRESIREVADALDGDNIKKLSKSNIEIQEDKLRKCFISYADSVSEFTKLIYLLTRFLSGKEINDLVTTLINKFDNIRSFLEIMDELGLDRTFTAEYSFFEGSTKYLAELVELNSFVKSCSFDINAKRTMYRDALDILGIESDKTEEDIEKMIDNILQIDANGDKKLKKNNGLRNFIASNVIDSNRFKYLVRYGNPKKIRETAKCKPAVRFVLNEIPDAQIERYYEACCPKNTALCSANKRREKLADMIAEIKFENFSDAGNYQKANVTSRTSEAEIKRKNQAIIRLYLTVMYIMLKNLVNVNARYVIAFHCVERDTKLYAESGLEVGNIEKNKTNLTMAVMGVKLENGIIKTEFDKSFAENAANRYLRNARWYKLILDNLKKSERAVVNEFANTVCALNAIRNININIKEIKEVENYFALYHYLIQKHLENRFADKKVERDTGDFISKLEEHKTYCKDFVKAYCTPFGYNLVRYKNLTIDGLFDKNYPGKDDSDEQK
Assay: crRNA (strand 1, pre-loaded); Mg2+; 40 mM Tris-HCl pH 7.5, 150 mM NaCl, 6 mM MgCl2, 1 mM DTT, 0.1% Tween-20, 0.2 mg/ml BSA; 25 C; 10 min per concentration, then washed
Details: tags: His6-TwinStrep-SUMO cleaved; N-terminal SNAP kept (SNAP-Surface 488); label: 3' end held by stalled T7 RNA polymerase
pKd: −log10 of the molar value.

| Binder | pKd |
| --- | --- |
| target 2 MT 5'PFS GAG 3'PFS UCG (mixed) RNA 1: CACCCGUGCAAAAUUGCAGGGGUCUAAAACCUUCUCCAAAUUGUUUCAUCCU RNA 2: GGGAAUGGAUCCACAUCUACGAAUUCGAGAGGAUGAAACAAUUUGGAGAAGUCGAGAUCGGAAGAGCACACGU | 7.97 |
